Assayed Target: PDE 4 (phosphodiesterase IV)
Test Description: PDE 4 inhibiting effect (3H-cAMP hydrolysis, PDE 4 active fraction from Balb/c mouse liver)
Assay type: biochemical
Assay Context: PDE 4 fraction from Balb/c mice liver, 0.064 μM cAMP, 2 hours at 25° C.; read-out: PDE4 IC50
Structures can show the parent of a compound that is named as a salt.
Quantity Name: pIC50
# log scale: pIC50 equals minus log10 of the concentration in mol/L

Compound	Assayed Target	pIC50
Cc1nn(C2CCCCC2)c2sc(C(=O)N[C@H]3CC[C@H](N4C[C@@H](C)O[C@@H](C)C4)CC3)cc12	PDE 4 (phosphodiesterase IV)	5.80

# query: pIC50 | item Cc1nn(C2CCCCC2)c2sc(C(=O)Nc3cccc(S(=O)(=O)N4CCN(C)CC4)c3)cc12 [Example 110, HCl salt] | system: PDE 4 (phosphodiesterase IV) 5.26

For PDE 4 (phosphodiesterase IV), provide pIC50 of Cc1nn(C2CCCCC2)c2sc(C(=O)N[C@H]3CC[C@H](N4CCCS4(=O)=O)CC3)cc12 please. 5.77

Lab note: need pIC50 for Cc1nn(C2CCCCC2)c2sc(C(=O)Nc3ccc(N4CC[C@@H](O)C4)cc3)cc12 on PDE 4 (phosphodiesterase IV), anyone have it? 5.42

Checklist item: pIC50 tested on PDE 4 (phosphodiesterase IV), entry Cc1nn(C2CCCCC2)c2sc(C(=O)NC3CCN(C(=O)N(C)C)CC3)cc12 , value? 5.55
